# IC50 per entry for 5-HT2A receptors in rat brain tissue (Rattus norvegicus)
Numeric answer only, unit nM assumed.

Quick one: IC50 of COc1cc(CCN)c(OC)cc1Cl ?
308

Cool, now COc1cc(CCN)c(OC)cc1I
125

Cool, now COc1cc(CC(C)N)c(OC)cc1I (centres unmarked) [DOI, reference compound]
56.1

Cool, now COc1cc(CCNCc2ccccc2OC)c(OC)cc1I [Compound 25I-NBOMe]
3.9

Cool, now COc1cc(CCNCc2ccccc2OC)c(OC)cc1Cl [Compound 25C-NBOMe]
8.7

---

tested_system: human 5-HT2C receptors (Homo sapiens)
Sequence (P28335 33-458): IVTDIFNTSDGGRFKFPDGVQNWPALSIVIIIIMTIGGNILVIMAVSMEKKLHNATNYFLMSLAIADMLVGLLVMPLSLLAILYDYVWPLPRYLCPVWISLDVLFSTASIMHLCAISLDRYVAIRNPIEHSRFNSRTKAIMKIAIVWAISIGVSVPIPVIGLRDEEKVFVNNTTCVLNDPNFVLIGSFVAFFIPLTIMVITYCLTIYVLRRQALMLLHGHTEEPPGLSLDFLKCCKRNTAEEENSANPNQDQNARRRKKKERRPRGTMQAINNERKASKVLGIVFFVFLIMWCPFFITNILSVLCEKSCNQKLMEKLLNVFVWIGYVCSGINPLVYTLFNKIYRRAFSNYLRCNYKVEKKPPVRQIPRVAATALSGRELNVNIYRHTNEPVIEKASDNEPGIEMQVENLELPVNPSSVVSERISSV
measurement_notes: Calcium mobilization, HEK293 cells expressing human 5-HT2C
Type: cell-based
run_parameters: HEK293, read-out: 5-HT2C Mobilization of Calcium % Emax
Doc: threshold 50% (exclusive). Items with Emax beneath it return 1; others return -1.

Quick check: Emax of COc1cc(CCNCc2ccccc2OC)c(OC)cc1I [Compound 25I-NBOMe] under 50%?
-1

Cool, now COc1cc(CCN)c(OC)cc1Cl
1

Cool, now COc1cc(CCNCc2ccccc2OC)c(OC)cc1Cl [Compound 25C-NBOMe]
-1

Cool, now COc1cc(CCN)c(OC)cc1I
1
